measurement-target: 5HT2 receptor (Rattus norvegicus, UniProt P14842)
Sequence (P14842 whole entry): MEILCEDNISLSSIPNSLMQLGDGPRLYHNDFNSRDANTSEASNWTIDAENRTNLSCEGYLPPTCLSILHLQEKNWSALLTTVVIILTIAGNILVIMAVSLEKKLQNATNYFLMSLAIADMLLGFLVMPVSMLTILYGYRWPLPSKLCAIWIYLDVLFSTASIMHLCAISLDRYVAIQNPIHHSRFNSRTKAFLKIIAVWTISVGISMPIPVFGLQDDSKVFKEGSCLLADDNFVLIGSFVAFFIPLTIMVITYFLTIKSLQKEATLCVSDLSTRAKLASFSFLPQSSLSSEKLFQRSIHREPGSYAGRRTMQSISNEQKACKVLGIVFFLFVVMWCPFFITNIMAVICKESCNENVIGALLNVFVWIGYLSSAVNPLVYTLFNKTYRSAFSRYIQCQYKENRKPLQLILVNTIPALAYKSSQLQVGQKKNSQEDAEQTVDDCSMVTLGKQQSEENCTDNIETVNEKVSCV
result-type: pKi
One number for each entry, as −log10 of the molar value.

Some solved entries appear below for comparison.
COc1ccc(C(C#N)(CCCN(C)CCCCCc2ccccc2)C(C)C)cc1OC (centres unmarked) [compound 3] ... 8.00
COc1ccc(C(C#N)(CCCN(C)CCCCc2ccccc2)C(C)C)cc1OC (centres unmarked) [Compound #2] ... 7.00
CCCCCCCCN(C)CCCC(C#N)(c1ccc(OC)c(OC)c1)C(C)C (centres unmarked) [Compound #1] ... 7.00
COc1ccc(C(C#N)(CCCN(C)CCCc2ccccc2)C(C)C)cc1OC (centres unmarked) [compound 4] ... 7.50

Problem: Consider the molecule CCCCCCCCCCN(C)CCCC(C#N)(c1ccc(OC)c(OC)c1)C(C)C (centres unmarked) [compound 6] and give its measured pKi.
Solution: 7.00

Numbers sourced from patent US5643947A.
